Recorded viability at 72 h, 0.01 µM, one value per entry.
experiment: Cell viability assay (CellTiter-Glo) in Jurkat cells; format: cell-based; conditions: human, Jurkat cells; 72 h; 10 nM; Fig. 4k; read-out: Relative cell viability (%)
The reply should contain only the number, in %.

Challenge: Which viability at 72 h, 0.01 µM value is on record for Cc1sc2c(c1C)C(c1ccc(Cl)cc1)=NC(CC(=O)NCCOCCOCCOCCOCCNC(=O)COc1c(Br)cc(CC3C(=O)Nc4ccc(Br)cc43)cc1Br)c1nnc(C)n1-2 (stereo not drawn) [Compound 16] ?
Response given: 97.2

Challenge: Which viability at 72 h, 0.01 µM value is on record for Cc1sc2c(c1C)C(c1ccc(Cl)cc1)=N[C@@H](CC(=O)NCCOCCOCCOCCOCCNC(=O)COc1c(Br)cc(/C=C3\C(=O)Nc4ccc(Br)cc43)cc1Br)c1nnc(C)n1-2 [Compound 9] ?
Response given: 100

Challenge: Which viability at 72 h, 0.01 µM value is on record for O=C1Nc2ccc(Br)cc2C1=Cc1cc(Br)c(O)c(Br)c1 [Compound 2] ?
Response given: 98.6

Continuing:
Challenge: Which viability at 72 h, 0.01 µM value is on record for Cc1sc2c(c1C)C(c1ccc(Cl)cc1)=NC(CC(=O)NCCOCCOCCOCCOc1c(Br)cc(CC3C(=O)Nc4ccc(Br)cc43)cc1Br)c1nnc(C)n1-2 (stereo not drawn) [Compound 17] ?
Response given: 120

Challenge: Which viability at 72 h, 0.01 µM value is on record for Cc1sc2c(c1C)C(c1ccc(Cl)cc1)=N[C@@H](CC(=O)OC(C)(C)C)c1nnc(C)n1-2 [JQ1, reference compound] ?
Response given: 89.4

Challenge: Which viability at 72 h, 0.01 µM value is on record for COCCCN(C(=O)CCl)C(C(=O)NCc1ccccc1)c1ccc(Cl)c(Cl)c1 (stereo not drawn) [Compound 15, reference compound] ?
Response given: 98.2
